Biological target: PDGFRa(T674I) (Homo sapiens, UniProt P16234, T674I)
Construct: catalytic domain constructs for large multi-domain kinases; T7 phage fusion (most assays) or DNA tag for qPCR (HEK-293-made kinases); made in house
Sequence (P16234 593-954 T674I limits assumed): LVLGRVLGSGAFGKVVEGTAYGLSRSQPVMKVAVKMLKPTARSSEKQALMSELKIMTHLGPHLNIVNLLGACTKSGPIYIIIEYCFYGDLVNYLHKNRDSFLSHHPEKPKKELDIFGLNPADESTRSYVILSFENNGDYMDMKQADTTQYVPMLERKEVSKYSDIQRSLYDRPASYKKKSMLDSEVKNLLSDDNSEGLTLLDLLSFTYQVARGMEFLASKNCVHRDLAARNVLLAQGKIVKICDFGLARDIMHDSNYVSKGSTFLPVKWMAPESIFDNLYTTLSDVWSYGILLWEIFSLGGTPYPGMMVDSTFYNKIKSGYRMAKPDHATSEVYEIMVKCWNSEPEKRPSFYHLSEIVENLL
Assay: Kinase competition binding assay, PDGFRa(T674I)
Details: Table 1 kinase panel
assay-metric: IC50

COc1cc(-c2cc(=O)c3c(O)c(CC=C(C)C)c(O)cc3o2)ccc1O [FBL-03B] : 0.92 nM
COc1cc(-c2cc(=O)c3c(O)cc(O)c(CC=C(C)C)c3o2)ccc1O [FBL-03G] : 2360 nM
COc1cc(-c2cc(=O)c3c(O)cc(O)c(C/C=C(\C)CCC=C(C)C)c3o2)ccc1O [FBL-03C] : > 1000 nM
COc1ccc(-c2cc(=O)c3c(O)c(C/C=C(\C)CCC=C(C)C)c(O)cc3o2)cc1OC [FBL-03D] : > 30000 nM

* * *

System: U87 (Glioma)
Assay: WST-1 anticancer cell proliferation assay, U87
Type: cell-based
Conditions: 72 hours
Entries and their IC50
assay-metric: IC50 (µM)

COc1cc(-c2cc(=O)c3c(O)cc(O)c(CC=C(C)C)c3o2)ccc1O [FBL-03G] : 5.46
COc1cc(-c2cc(=O)c3c(O)c(CC=C(C)C)c(O)cc3o2)ccc1O [FBL-03B] : 6.2
COc1cc(-c2cc(=O)c3c(O)cc(O)c(C/C=C(\C)CCC=C(C)C)c3o2)ccc1O [FBL-03C] : 12.5
COc1cc(-c2cc(=O)c3c(O)c(C/C=C(\C)CCC=C(C)C)c(O)cc3o2)ccc1O [FBL-03A] : 34

* * *

Entries and their IC50
Biological target: FLT4(VEGFR3) (Homo sapiens, UniProt P35916)
Construct: made in house
Sequence (P35916 25-1363): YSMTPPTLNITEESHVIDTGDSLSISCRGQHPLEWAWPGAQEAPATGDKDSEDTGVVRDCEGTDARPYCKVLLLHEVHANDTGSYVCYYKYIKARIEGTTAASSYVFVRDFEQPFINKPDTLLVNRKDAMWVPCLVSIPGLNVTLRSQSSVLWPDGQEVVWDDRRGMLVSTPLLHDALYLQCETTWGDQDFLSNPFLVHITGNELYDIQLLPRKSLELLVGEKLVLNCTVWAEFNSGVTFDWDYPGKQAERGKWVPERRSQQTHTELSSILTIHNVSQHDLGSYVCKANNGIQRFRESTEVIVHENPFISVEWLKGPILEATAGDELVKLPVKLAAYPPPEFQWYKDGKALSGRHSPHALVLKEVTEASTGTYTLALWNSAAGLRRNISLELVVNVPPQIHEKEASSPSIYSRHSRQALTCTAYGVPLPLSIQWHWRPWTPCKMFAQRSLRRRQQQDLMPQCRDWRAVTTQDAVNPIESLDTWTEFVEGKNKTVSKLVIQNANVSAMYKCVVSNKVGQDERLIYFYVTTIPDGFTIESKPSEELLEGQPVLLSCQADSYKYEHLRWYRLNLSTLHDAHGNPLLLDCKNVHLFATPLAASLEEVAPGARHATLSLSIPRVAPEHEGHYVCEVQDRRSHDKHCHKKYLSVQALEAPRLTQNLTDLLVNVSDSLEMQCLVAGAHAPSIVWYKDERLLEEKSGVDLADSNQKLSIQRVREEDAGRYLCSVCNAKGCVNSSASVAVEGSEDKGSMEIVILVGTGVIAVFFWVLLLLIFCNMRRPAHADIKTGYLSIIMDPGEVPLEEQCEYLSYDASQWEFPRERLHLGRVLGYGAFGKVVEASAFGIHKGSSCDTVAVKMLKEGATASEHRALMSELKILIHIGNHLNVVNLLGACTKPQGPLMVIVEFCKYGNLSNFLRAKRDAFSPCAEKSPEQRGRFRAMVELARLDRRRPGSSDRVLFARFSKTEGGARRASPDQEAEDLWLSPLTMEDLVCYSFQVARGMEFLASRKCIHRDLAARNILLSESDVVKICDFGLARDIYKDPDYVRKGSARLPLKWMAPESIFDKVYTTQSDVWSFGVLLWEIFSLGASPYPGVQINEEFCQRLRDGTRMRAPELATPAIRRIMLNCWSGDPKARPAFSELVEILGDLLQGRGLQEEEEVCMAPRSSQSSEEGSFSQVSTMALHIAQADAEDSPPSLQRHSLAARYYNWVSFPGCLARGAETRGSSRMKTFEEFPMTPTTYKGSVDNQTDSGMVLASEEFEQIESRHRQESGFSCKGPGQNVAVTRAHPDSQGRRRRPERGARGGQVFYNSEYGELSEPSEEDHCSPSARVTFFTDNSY
Assay: Kinase competition binding assay, FLT4(VEGFR3)
Conditions: Table 1 kinase panel
assay-metric: IC50

COc1cc(-c2cc(=O)c3c(O)c(CC=C(C)C)c(O)cc3o2)ccc1O [FBL-03B] : 9.3 nM
COc1ccc(-c2cc(=O)c3c(O)c(C/C=C(\C)CCC=C(C)C)c(O)cc3o2)cc1OC [FBL-03D] : > 30000 nM
COc1cc(-c2cc(=O)c3c(O)cc(O)c(C/C=C(\C)CCC=C(C)C)c3o2)ccc1O [FBL-03C] : > 20000 nM
COc1cc(-c2cc(=O)c3c(O)c(C/C=C(\C)CCC=C(C)C)c(O)cc3o2)ccc1O [FBL-03A] : 330 nM
COc1cc(-c2cc(=O)c3c(O)cc(O)c(CC=C(C)C)c3o2)ccc1O [FBL-03G] : 4220 nM

* * *

Molecular target: FLT3(D835Y) (Homo sapiens, UniProt P36888, D835Y)
Construct: made in house
Assay type: binding
Details: Table 4; read-out: Acute Myeloid Leukemia Kinases FLT3-D835Y IC50
pIC50: −log10 of the molar value.
The label depends only on pIC50: yes if it is at least 7, no if it is smaller.

O=c1cc(-c2ccc(O)c(O)c2)oc2cc(O)cc(O)c12 : no
COc1cc(-c2oc3cc(O)ccc3c(=O)c2O)ccc1O : yes
COc1cc(-c2cc(=O)c3c(O)c(OC)c(OC)cc3o2)ccc1O : yes

* * *

Molecular target: PIM-3 (Homo sapiens)
Construct: full-length constructs were used for small, single domain kinases; T7 phage fusion (most assays) or DNA tag for qPCR (HEK-293-made kinases); made in house
Experiment: Kinase competition binding assay, PIM-3
Conditions: Table 1 kinase panel
Entries and their IC50
assay-metric: IC50 (nM)

COc1cc(-c2cc(=O)c3c(O)cc(O)c(CC=C(C)C)c3o2)ccc1O [FBL-03G] : 35
COc1cc(-c2cc(=O)c3c(O)c(CC=C(C)C)c(O)cc3o2)ccc1O [FBL-03B] : 173

* * *

Entries and their IC50
Target: BRD3 (Homo sapiens)
Sequence (Q15059 whole entry): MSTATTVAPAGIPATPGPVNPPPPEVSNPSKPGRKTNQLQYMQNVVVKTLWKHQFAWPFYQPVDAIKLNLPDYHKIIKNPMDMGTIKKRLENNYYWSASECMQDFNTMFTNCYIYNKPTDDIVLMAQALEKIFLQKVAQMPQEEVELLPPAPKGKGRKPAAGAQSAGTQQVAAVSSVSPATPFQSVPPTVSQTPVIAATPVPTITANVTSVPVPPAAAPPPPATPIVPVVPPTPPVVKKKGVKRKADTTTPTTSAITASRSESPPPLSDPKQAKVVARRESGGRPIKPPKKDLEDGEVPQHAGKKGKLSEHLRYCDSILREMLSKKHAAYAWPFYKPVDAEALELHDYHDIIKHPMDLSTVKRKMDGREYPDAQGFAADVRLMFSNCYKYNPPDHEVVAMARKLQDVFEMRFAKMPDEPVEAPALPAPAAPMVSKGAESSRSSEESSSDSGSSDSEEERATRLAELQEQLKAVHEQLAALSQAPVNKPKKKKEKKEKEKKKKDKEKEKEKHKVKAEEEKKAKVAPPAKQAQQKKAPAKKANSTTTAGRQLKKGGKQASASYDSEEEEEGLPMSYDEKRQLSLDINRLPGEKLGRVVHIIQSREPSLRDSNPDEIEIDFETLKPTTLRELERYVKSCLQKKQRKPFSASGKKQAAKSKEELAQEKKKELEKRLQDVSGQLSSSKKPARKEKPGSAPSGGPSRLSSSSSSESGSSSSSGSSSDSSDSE
Test: Inhibition of bromodomains, BRD3
Assay type: binding
Conditions: Table 3 Bromodomain
assay-metric: IC50

COc1cc(-c2cc(=O)c3c(O)c(CC=C(C)C)c(O)cc3o2)ccc1O [FBL-03B] : 7.05 µM
COc1cc(-c2cc(=O)c3c(O)cc(O)c(CC=C(C)C)c3o2)ccc1O [FBL-03G] : 8.69 µM

* * *

Entries and their IC50
Target: SIRT-5 (Homo sapiens)
Sequence (Q9NXA8 37-310): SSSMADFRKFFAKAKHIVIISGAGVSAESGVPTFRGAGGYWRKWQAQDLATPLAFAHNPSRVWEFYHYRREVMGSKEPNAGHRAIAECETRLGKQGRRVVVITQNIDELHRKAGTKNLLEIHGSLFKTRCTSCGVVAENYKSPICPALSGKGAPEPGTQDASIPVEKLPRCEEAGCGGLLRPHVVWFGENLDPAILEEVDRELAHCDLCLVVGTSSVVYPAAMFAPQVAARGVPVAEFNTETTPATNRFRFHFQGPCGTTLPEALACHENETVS
Experiment: Inhibition of sirtuins, SIRT-5
Type: biochemical
Conditions: Table 3 SIRT
assay-metric: IC50 (µM)

COc1cc(-c2cc(=O)c3c(O)c(C/C=C(\C)CCC=C(C)C)c(O)cc3o2)ccc1O [FBL-03A] : 523
COc1cc(-c2cc(=O)c3c(O)c(CC=C(C)C)c(O)cc3o2)ccc1O [FBL-03B] : 104
COc1cc(-c2cc(=O)c3c(O)cc(O)c(CC=C(C)C)c3o2)ccc1O [FBL-03G] : 974
COc1cc(-c2cc(=O)c3c(O)cc(O)c(C/C=C(\C)CCC=C(C)C)c3o2)ccc1O [FBL-03C] : 132

* * *

Target: KIT (Homo sapiens)
Construct: made in house
Sequence (P10721 26-976): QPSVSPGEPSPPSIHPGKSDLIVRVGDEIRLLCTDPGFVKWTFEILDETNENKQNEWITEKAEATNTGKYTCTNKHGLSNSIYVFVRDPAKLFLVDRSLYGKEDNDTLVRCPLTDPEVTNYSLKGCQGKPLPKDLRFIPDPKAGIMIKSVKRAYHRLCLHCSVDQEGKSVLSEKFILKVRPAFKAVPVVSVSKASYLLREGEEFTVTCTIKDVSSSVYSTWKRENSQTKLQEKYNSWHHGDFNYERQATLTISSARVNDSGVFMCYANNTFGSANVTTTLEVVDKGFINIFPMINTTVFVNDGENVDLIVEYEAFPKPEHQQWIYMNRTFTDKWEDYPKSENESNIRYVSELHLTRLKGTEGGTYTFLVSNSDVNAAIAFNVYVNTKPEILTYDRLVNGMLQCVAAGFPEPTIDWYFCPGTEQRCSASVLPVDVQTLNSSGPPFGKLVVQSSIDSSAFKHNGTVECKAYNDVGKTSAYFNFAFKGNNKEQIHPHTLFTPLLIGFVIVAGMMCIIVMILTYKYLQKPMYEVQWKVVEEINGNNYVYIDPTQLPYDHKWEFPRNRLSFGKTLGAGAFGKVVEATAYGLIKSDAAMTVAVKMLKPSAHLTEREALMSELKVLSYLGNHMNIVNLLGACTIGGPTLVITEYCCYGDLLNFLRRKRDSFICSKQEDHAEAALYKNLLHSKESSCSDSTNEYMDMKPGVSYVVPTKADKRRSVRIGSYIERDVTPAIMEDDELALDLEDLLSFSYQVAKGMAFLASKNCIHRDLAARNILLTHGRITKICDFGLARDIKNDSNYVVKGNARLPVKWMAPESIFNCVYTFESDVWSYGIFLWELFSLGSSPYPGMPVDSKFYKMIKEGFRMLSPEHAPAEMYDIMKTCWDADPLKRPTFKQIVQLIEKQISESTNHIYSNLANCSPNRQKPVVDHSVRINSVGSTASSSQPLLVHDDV
Assay: Kinase competition binding assay, KIT
Conditions: Table 1 kinase panel
assay-metric: IC50

COc1cc(-c2cc(=O)c3c(O)c(CC=C(C)C)c(O)cc3o2)ccc1O [FBL-03B] : < 1000 nM
COc1cc(-c2cc(=O)c3c(O)cc(O)c(CC=C(C)C)c3o2)ccc1O [FBL-03G] : < 1000 nM
COc1cc(-c2cc(=O)c3c(O)c(C/C=C(\C)CCC=C(C)C)c(O)cc3o2)ccc1O [FBL-03A] : 350 nM
COc1ccc(-c2cc(=O)c3c(O)c(C/C=C(\C)CCC=C(C)C)c(O)cc3o2)cc1OC [FBL-03D] : > 30000 nM
COc1cc(-c2cc(=O)c3c(O)cc(O)c(C/C=C(\C)CCC=C(C)C)c3o2)ccc1O [FBL-03C] : > 1000 nM

* * *

Target: KIT(L576P) (Homo sapiens, UniProt P10721, L576P)
Construct: made in house
Sequence (P10721 26-976 L576P): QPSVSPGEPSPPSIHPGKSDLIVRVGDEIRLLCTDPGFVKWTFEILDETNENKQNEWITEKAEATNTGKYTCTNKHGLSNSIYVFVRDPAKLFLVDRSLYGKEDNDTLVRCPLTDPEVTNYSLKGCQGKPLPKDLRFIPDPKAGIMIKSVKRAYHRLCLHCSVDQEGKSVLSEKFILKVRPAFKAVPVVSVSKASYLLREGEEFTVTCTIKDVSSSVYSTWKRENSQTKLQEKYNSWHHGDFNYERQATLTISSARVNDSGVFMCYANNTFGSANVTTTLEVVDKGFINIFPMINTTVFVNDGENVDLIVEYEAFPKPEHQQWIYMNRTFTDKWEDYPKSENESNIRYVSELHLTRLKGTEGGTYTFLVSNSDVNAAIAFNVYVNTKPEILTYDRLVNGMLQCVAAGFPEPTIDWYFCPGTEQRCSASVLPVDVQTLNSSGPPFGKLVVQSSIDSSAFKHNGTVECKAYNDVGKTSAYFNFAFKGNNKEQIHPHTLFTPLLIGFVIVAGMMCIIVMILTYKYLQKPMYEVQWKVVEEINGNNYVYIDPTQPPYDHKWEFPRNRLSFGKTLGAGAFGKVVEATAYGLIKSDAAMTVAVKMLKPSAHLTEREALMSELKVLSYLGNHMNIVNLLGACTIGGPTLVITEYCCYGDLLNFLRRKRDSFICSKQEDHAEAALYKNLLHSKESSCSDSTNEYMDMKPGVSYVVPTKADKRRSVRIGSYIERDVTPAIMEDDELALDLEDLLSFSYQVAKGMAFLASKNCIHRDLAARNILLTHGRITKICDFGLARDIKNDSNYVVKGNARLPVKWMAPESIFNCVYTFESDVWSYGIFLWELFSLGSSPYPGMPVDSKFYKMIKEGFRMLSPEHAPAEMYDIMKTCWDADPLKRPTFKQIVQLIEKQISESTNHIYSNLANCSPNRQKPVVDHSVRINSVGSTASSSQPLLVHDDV
Test: Kinase competition binding assay, KIT(L576P)
Details: Table 1 kinase panel
Entries and their IC50
assay-metric: IC50

COc1cc(-c2cc(=O)c3c(O)cc(O)c(CC=C(C)C)c3o2)ccc1O [FBL-03G] : < 1000 nM
COc1ccc(-c2cc(=O)c3c(O)c(C/C=C(\C)CCC=C(C)C)c(O)cc3o2)cc1OC [FBL-03D] : > 30000 nM
COc1cc(-c2cc(=O)c3c(O)c(C/C=C(\C)CCC=C(C)C)c(O)cc3o2)ccc1O [FBL-03A] : 180 nM
COc1cc(-c2cc(=O)c3c(O)cc(O)c(C/C=C(\C)CCC=C(C)C)c3o2)ccc1O [FBL-03C] : > 1000 nM
COc1cc(-c2cc(=O)c3c(O)c(CC=C(C)C)c(O)cc3o2)ccc1O [FBL-03B] : < 1000 nM

* * *

Target: MELK (Homo sapiens)
Construct: made in house
Sequence (Q14680 whole entry): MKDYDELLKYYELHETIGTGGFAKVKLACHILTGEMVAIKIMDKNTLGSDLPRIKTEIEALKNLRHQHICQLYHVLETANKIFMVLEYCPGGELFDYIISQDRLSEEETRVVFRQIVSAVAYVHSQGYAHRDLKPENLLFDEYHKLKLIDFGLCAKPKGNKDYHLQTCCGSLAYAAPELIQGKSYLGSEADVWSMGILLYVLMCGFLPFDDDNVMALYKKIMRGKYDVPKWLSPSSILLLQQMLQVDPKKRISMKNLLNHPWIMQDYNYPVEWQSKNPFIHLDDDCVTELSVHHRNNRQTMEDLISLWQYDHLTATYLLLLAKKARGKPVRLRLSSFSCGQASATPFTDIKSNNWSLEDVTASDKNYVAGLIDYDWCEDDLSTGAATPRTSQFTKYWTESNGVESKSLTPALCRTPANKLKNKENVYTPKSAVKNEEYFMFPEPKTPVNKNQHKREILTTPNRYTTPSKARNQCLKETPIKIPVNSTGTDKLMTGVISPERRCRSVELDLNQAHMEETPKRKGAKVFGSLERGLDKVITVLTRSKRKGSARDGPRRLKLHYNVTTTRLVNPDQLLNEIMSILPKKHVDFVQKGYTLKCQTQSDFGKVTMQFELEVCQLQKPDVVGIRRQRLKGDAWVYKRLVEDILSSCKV
Assay: Kinase competition binding assay, MELK
Conditions: Table 1 kinase panel
Description: Cannabis flavonoids and their analogs were subjected to kinase inhibition assay. The compounds were first screened at a single concentration of 10 μM in the primary assay. […]. […] See also, Karaman et al., “A Quantitative Analysis Of Kinase Inhibitor Selectivity”, Nat. […] For most assays, kinases were fused to T7 phage strains (Fabian, supra) and for the other assays, kinases were produced in HEK-293 cells after which they were tagged with DNA for quantitative PCR detection. […]
assay-metric: IC50

COc1cc(-c2cc(=O)c3c(O)cc(O)c(C/C=C(\C)CCC=C(C)C)c3o2)ccc1O [FBL-03C] : > 1000 nM
COc1ccc(-c2cc(=O)c3c(O)c(C/C=C(\C)CCC=C(C)C)c(O)cc3o2)cc1OC [FBL-03D] : > 30000 nM
COc1cc(-c2cc(=O)c3c(O)c(C/C=C(\C)CCC=C(C)C)c(O)cc3o2)ccc1O [FBL-03A] : > 20000 nM

* * *

Target: FLT3(D835Y) (Homo sapiens, UniProt P36888, D835Y)
Construct: made in house
Type: binding
Settings: Table 1 kinase panel; read-out: IC50 (nM) FLT3(D835Y)
assay-metric: IC50

COc1ccc(-c2cc(=O)c3c(O)c(C/C=C(\C)CCC=C(C)C)c(O)cc3o2)cc1OC [FBL-03D] : > 30000 nM
COc1cc(-c2cc(=O)c3c(O)c(C/C=C(\C)CCC=C(C)C)c(O)cc3o2)ccc1O [FBL-03A] : > 20000 nM
COc1cc(-c2cc(=O)c3c(O)cc(O)c(C/C=C(\C)CCC=C(C)C)c3o2)ccc1O [FBL-03C] : > 20000 nM

// data source = patent US20180353462A1
